Numbers sourced from PubChem BioAssay (NCI).

Reported growth inhibition by item:
Assay: NCI Yeast Anticancer Drug Screen. Data for the sgs1 mgt1 strain (AID 161);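 note: 0% = growth of cultures given vehicle only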
Details: S. cerevisiae sgs1 mgt1 strain, hits give high values; at 50.0 µM unless noted
Compounds without any hit were thinned out: in the full panel of roughly 79,000, 15% have a hit.
Answer with a number only, understood to be in %.

The examples below pair each entry with its known result.
Cn1c2ccc(Cl)cc2c2ccc3c(c21)C(=O)C=CC3=O | -18.3
CC(=O)OCC1OC(n2c3c(c(-c4cccc5ccccc45)c(C#N)c2=S)CCCC3)C(OC(C)=O)C(OC(C)=O)C1OC(C)=O (configuration not stated) | 14

State its growth inhibition: CCS(=O)(=O)C(CCCl)S(=O)(=O)CC
16.4

State its growth inhibition: C/C=C/C(=O)Oc1ccc[nH]c1=O
4.85

State its growth inhibition: CC(C)(O)CCNc1ncnc2c1ncn2C1OC(CO)C(O)C1O (configuration not stated)
9.7

State its growth inhibition: CCOC(=O)c1c2ccc(/C=C/C(=O)OC)ccc-2c(C(=O)OCC)c1N
-23.4

State its growth inhibition: COC(=O)CC(C)N(c1ccc(Cl)c(Cl)c1)S(=O)(=O)c1ccc(C)cc1 (configuration not stated)
4.1

State its growth inhibition: N#CNC(N)=NCCO
-36.9

State its growth inhibition: N#CCCCCCOCCOCCOCCOCCOCCCCCC#N
-10.2

State its growth inhibition: O=C(O)C(=O)Nc1ccccc1
-5.5

State its growth inhibition: NC1N=Nc2ccccc21 (configuration not stated)
13.3

State its growth inhibition: O=C(C/C(CCC(=O)N(Cc1ccccc1)Cc1ccccc1)=N/Nc1ccc([N+](=O)[O-])cc1[N+](=O)[O-])c1ccccc1
60

----------
Experiment: NCI Yeast Anticancer Drug Screen. Data for the bub3 strain (AID 167)
Conditions: S. cerevisiae bub3 mutant strain, hits give high values; at 50.0 µM unless noted
The panel holds about 79,000 compounds, 15% with a hit somewhere; the sample as a whole holds those more often.
reported_property: growth inhibition (%)
Answer with a number only, understood to be in %.

CN(C)CC[N+]1=Nc2cccc3cccc(c23)N1 | -6.2
C[N+]1(CC(=O)c2ccc(Cl)cc2)CCOCC1 | 6.6
O=C1c2ccccc2C(=O)N1CCS(=O)(=O)O | 10.2
CC(C)Cc1c(C#N)c(C#N)c(N)n1Cc1ccccc1 | -22.1
CCCCC(OC(=O)c1ccccc1)c1cc(OC(=O)c2ccccc2)c2c(c1OC(=O)c1ccccc1)CC(C)=C(C)C2 (configuration not stated) | 48.2

State its growth inhibition: O=C1c2ccc3c4ccccc4n(-c4ccccc4)c3c2C(=O)N1c1ccc(Cl)cc1
-18.4

State its growth inhibition: [N-]=[N+]=Nc1c(C=O)c(=O)n2c3c(cccc13)CCC2
27.7

State its growth inhibition: CC1CCCN(CCC(=O)c2ccc(O)cc2)C1 (configuration not stated)
7.35

State its growth inhibition: Cc1nc(N(C)C)oc(=O)c1CCc1ccccc1
6.9

State its growth inhibition: CCOC(=O)c1[nH]c(=S)n(C)c1C(=O)OCC
8.1

State its growth inhibition: CC(C)(O)C(O)c1ccccc1 (configuration not stated)
1

State its growth inhibition: CC(=O)N(C(C)=O)N1C(=O)CSC1=S
17.4

----------
Assay: NCI Yeast Anticancer Drug Screen. Data for the rad50 strain (AID 155);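 note: 0% = growth of vehicle-only cultures of the same strain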
Settings: S. cerevisiae rad50 strain growth inhibition, hits give high values; at 50.0 µM unless noted
Protocol: Growth inhibition of yeast strains with defined genetic alterations is measured as a screen for potential anti-cancer activity. Selected strains with alterations in DNA damage repair or cell cycle control were exposed to compounds and growth inhibition was measured relative to vehicle treated controls. The strain used in this assay is rad50
About 79,000 compounds went through this panel and 15% of them were active in at least one assay; those are over-represented in the sample as a whole.
Reported growth inhibition by item:
Answer with a number only, understood to be in %.

The examples below pair each entry with its known result.
N#Cc1ccc(-c2ccc(C#N)cc2)cc1 | -19.4
COC(=O)C(C)(C)C(C)=O | -40
COc1ccc2c(CSc3ncnc4nc[nH]c34)cc(=O)oc2c1 | 12.4
Cc1nnc2sc(N/N=C/c3ccccc3)nn12 | -35.5
O=C(OC1OCC(OCc2ccccc2)C(OCc2ccccc2)C1OCc1ccccc1)c1ccccc1 (stereo not drawn) | 22.6
CCCCCCCNC(=O)C(C)Br (stereo not drawn) | 17.6
CCCSc1nc(C(=O)O)cc(=O)[nH]1 | -8.9
Cc1cccc(CO)c1NC(=O)NCCCl | -0.4

State its growth inhibition: Cc1sc2ccccc2[n+]1CCC(=O)O
-23.1

State its growth inhibition: CN(C)Cc1ccccc1CC1(O)CCCC1
19.6

State its growth inhibition: CC(=O)Nc1cc(NC(C)=O)c2ccc(=O)[nH]c2c1O
-2.9

State its growth inhibition: CC1=NN(C(=O)c2ccc(Cl)cc2)C(=O)/C1=C/c1cccc([N+](=O)[O-])c1
-16.7

State its growth inhibition: CC(=O)OC1c2ccccc2CCCCCCC12OCCO2 (stereo not drawn)
-25.1
